- measuredTarget: Human Cav 2.2 channels (Homo sapiens, UniProt Q00975)
- Sequence (Q00975 whole entry): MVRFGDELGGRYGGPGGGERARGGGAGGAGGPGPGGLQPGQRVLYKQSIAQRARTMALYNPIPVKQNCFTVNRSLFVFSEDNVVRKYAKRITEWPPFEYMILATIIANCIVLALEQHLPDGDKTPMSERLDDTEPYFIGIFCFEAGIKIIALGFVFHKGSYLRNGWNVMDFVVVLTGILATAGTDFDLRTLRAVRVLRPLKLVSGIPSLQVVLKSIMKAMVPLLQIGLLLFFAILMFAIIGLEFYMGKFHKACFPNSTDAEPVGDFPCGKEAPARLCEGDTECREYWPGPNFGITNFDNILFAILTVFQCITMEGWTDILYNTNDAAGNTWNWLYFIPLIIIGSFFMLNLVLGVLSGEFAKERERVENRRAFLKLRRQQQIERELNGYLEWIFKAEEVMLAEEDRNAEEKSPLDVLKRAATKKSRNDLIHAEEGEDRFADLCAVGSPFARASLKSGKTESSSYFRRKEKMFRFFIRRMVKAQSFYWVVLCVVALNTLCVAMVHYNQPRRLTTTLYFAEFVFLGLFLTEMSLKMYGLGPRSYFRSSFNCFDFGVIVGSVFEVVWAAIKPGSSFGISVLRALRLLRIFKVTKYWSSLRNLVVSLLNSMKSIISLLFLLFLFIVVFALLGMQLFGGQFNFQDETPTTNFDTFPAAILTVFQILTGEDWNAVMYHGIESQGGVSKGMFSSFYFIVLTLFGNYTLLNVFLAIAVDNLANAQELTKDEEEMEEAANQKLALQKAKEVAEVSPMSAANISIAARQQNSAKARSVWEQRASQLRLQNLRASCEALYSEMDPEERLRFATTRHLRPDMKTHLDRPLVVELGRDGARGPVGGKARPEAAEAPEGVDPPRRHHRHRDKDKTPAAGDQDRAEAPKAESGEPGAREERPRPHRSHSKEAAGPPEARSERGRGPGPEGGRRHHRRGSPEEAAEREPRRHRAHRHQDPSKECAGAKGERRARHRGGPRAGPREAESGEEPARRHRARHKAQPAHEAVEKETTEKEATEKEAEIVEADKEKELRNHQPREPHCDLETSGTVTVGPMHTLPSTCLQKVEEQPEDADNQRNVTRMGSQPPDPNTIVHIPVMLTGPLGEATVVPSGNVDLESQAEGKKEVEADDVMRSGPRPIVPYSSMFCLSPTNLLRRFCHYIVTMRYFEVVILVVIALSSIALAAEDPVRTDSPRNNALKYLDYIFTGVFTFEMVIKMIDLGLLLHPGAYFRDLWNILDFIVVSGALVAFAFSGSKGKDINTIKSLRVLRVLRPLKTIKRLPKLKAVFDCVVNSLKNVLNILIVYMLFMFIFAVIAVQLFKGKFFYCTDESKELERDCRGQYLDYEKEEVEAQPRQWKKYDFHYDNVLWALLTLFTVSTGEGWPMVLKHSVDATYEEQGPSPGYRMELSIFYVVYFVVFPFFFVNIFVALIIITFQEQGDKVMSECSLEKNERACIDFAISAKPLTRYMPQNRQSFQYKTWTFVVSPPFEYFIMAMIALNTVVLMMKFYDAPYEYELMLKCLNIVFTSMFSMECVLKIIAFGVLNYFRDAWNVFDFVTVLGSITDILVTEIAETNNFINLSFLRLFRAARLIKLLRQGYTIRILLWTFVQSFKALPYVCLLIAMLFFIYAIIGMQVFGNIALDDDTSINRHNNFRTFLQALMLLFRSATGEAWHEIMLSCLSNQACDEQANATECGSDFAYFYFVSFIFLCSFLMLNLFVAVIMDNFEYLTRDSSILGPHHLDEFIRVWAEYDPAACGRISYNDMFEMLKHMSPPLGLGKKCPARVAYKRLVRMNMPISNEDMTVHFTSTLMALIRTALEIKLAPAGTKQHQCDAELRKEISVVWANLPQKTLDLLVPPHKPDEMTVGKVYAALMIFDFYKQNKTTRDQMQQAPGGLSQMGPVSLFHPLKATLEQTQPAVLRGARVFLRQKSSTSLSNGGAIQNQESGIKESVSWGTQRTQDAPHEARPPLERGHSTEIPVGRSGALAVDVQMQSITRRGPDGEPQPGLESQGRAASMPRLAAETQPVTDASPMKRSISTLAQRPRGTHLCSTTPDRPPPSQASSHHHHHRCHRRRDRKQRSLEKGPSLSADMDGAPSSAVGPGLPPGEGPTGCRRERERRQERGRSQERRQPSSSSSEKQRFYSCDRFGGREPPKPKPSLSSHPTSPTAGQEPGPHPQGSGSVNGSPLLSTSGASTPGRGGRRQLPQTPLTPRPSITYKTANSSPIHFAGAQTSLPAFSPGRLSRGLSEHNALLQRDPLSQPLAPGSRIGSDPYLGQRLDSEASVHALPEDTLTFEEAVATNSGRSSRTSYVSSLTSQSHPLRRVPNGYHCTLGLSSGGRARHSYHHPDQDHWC
- Sequence (P54289 25-1103 partner): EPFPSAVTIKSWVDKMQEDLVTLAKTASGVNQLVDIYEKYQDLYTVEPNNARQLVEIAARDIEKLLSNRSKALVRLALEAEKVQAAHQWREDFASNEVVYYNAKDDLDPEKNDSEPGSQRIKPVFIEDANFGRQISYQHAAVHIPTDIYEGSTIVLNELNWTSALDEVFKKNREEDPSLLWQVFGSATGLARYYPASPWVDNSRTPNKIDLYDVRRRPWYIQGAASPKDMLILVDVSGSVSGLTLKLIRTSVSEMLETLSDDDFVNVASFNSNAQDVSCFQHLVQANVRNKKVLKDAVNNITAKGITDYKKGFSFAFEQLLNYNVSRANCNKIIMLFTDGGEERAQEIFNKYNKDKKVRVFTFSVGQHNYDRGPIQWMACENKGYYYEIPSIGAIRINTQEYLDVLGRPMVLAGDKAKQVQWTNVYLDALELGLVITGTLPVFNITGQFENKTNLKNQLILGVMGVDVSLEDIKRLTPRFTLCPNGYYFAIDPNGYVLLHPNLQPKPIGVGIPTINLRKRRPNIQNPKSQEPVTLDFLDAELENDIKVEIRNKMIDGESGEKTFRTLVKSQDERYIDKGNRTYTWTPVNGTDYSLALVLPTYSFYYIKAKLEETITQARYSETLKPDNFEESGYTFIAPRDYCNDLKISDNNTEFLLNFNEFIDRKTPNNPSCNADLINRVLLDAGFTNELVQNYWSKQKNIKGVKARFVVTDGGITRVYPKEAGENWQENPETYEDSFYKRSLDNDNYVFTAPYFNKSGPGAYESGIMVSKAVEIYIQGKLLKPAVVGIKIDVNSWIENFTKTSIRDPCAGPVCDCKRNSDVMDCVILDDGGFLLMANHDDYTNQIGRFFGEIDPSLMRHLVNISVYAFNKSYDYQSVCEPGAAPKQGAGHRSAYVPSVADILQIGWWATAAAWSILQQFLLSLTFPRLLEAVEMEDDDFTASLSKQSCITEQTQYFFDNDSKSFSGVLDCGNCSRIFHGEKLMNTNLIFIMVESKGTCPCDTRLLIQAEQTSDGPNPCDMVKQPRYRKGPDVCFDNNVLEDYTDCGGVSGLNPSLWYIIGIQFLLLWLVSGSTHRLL
- Sequence (P54284 whole entry partner): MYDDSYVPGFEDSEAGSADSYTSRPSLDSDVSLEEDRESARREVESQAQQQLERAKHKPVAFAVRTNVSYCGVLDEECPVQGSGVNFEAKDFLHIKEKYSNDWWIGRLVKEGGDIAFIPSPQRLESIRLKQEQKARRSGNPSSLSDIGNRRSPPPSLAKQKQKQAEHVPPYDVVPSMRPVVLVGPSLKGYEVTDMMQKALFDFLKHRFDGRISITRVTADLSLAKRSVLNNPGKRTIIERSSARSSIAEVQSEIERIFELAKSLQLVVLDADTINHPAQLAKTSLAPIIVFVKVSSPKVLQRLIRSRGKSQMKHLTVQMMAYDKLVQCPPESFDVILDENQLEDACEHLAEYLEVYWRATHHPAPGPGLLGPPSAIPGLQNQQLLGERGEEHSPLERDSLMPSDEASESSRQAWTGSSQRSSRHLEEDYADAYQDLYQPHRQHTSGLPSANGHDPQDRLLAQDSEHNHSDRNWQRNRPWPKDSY
- procedureText: Fluorescent assay for CaV2.2 channels using potassium depolarization (VIPR/FLIPR)
- Type: cell-based
- statedConditions: FLIPR data; ratio closed/inactivated IC50
parameter: CAv2.2 IC50 Ratio closed/inact.

| structureString | CAv2.2 IC50 Ratio closed/inact. |
| --- | --- |
| CC(C)([C@H]1C[C@H](NS(=O)(=O)c2ccc(OC(F)(F)F)cc2)C1)S(=O)(=O)c1cccc(C(F)(F)F)c1 | 8.2 |
| CC(C)([C@H]1C[C@@H](NC(=O)c2ccc(C(F)(F)F)cc2)C1)S(=O)(=O)c1cccc(C(F)(F)F)c1 | 18.7 |

I: Cc1nc(S(=O)(=O)N[C@H]2C[C@H](C(C)(C)S(=O)(=O)c3cccc(C(F)(F)F)c3)C2)cn1C
II: CC(C)([C@H]1C[C@H](NC(=O)c2ccc(C(F)(F)F)cn2)C1)S(=O)(=O)c1cccc(C(F)(F)F)c1
III: CC(C)([C@H]1C[C@H](NS(=O)(=O)c2ccc(C(F)(F)F)nc2)C1)S(=O)(=O)c1cc(F)cc(C(F)(F)F)c1
IV: CC(C)([C@H]1C[C@H](NC(=O)c2ncc(C(F)(F)F)cc2S(C)(=O)=O)C1)S(=O)(=O)c1cccc(OC(F)(F)F)c1
V: CC(C)([C@H]1C[C@@H](NC(=O)CC2(N)CCCCC2)C1)S(=O)(=O)c1cccc(C(F)(F)F)c1
Ascending sort, CAv2.2 IC50 Ratio closed/inact.. Kindly provide the labels arranged according to the requested ordering.
I, III, V, II, IV
(I: 1.2, III: 3.6, V: 7.5, II: 11.6, IV: 17.2)
